- Tested on: SNB-75 CNS
- assay details: NCI tumour cell line growth inhibition, 48 h
quantity: TGI

Previously resolved entries follow.
# compound string, TGI
rows = [
    ("COC(=O)c1c2c(c(C)[n+]([O-])c1C)C(=O)C=C(NCc1cccc(OC)c1)C2=O", "3.01 µM"),
    ("Cc1cc(=O)oc2cc(OC(=O)Nc3ccc(Cl)c(Cl)c3)ccc12", "67.3 µM"),
    ("CCCCCCCCCCCCCC/C(C(=O)OC)=C(/O)C(=O)OCC", "> 100 µM"),
]

Now consider a different compound.
Noted for "C=C(CNCCc1ccc(O)cc1)[C@@H]1CC[C@]2(CO)CC[C@]3(C)[C@H](CC[C@@H]4[C@@]5(C)CCC(=O)C(C)(C)[C@@H]5CC[C@]43C)[C@@H]12" : its TGI reads 2.74 µM

====

- System: TK-10 renal
- assay details: NCI tumour cell line growth inhibition, 48 h
quantity: TGI

Previously resolved entries follow.
# compound, quantity, observed result
measured = [
    ("C/C(=N\\NC(=O)CC(=O)Nc1ccc(Cl)cc1)c1cc2ccccc2oc1=O", "TGI", "> 100 µM"),
    ("COC(=O)c1ccccc1NC(=O)C(=O)CC(=O)c1ccccc1NC1=CC(=O)C(=O)c2ccccc21", "TGI", "> 95.1 µM"),
]

Noted for C=C1C(=O)OC2/C=C(\C)C(O)CC(O)C(C)(O)CC(OC(=O)/C(C)=C/C)C12 (centres undefined) : its TGI reads > 100 µM

Noted for "Cc1cc(Cc2cc(C)c(NC(=O)C(=O)C3C(=O)NC(=S)NC3=O)c(C(C)C)c2)cc(C(C)C)c1NC(=O)C(=O)C1C(=O)NC(=S)NC1=O" : its TGI reads > 100 µM

====

Overview of recorded GI50 for various molecules
- Test system: HOP-92 NSCLC
- assay details: NCI tumour cell line growth inhibition, 48 h

Previously resolved entries follow.
# molecule, quantity, observed result
data = [
    ("Cc1cc(S(=O)(=O)Nc2nc3ccsc3c(=O)n2Cc2ccco2)c(S)cc1Cl", "GI50", "> 100 µM"),
    ("Nc1nc2ccc([C@@H]3Nc4ccc5[nH]ncc5c4[C@H]4[C@H]5CCC(C5)[C@H]43)cc2s1", "GI50", "1.67 µM"),
    ("COc1ccc2nc(NCCCNCCO)c3sc4ccc(F)cc4c(=O)c3c2c1", "GI50", "1.1 µM"),
    ("C=C(CN1CCN(c2cccc(C(F)(F)F)c2)CC1)c1ccc(C(=O)Nc2ccccc2N)cc1", "GI50", "1.51 µM"),
    ("COc1ccc(C2NCCc3c2[nH]c2ccccc32)cc1CN1CCN(c2ccc(F)cc2)CC1 (stereo not drawn)", "GI50", "2 µM"),
    ("CCC(C(=O)[O-])C(=O)[O-].CCC(C(=O)[O-])C(=O)[O-].N.N.NCCCCCN.[Pt+4].[Pt+4]", "GI50", "> 100 µM"),
    ("COc1cc(NN=C(c2ccc(O)cc2)c2ccc(O)cc2)c([N+](=O)[O-])cc1[N+](=O)[O-]", "GI50", "12.1 µM"),
]

Noted for "COc1cc2c3c(n(CCCN)c(=O)c2cc1OC)-c1ccc(F)cc1C3=O" : its GI50 reads 8.91 µM
